pIC50: −log10 of the molar value.
Parameter pIC50, tested on P2X purinoceptor 3 (Homo sapiens), listed per item.

// input: 2 compounds below; output: pIC50 for each
1. COC(=O)N1CCO[C@@H](Cc2c(-c3c(F)cc(-c4nc(C5(C#N)CC5)c[nH]4)cc3F)nc3cc(C)ccn23)C1 [US20240034729, Compound 144]
2. COC(=O)N1CCO[C@@H](Cc2c(-c3c(F)cc(-c4nc(C5(C(N)=O)CC5)c[nH]4)cc3F)nc3cc(C)ccn23)C1 [US20240034729, Compound 133]

1. > 7.00
2. > 7.00

What does the data say about its pIC50? Entry: COC(=O)N1CCO[C@@H](Cc2c(-c3c(F)cc(NC4CCC(=O)C4)cc3F)nc3cc(C)ccn23)C1 (stereo partly drawn) [US20240034729, Compound 79]
> 7.00

---

- experimental system: P2X purinoceptor 3 (Homo sapiens, UniProt P56373)
- Sequence (P56373 whole entry): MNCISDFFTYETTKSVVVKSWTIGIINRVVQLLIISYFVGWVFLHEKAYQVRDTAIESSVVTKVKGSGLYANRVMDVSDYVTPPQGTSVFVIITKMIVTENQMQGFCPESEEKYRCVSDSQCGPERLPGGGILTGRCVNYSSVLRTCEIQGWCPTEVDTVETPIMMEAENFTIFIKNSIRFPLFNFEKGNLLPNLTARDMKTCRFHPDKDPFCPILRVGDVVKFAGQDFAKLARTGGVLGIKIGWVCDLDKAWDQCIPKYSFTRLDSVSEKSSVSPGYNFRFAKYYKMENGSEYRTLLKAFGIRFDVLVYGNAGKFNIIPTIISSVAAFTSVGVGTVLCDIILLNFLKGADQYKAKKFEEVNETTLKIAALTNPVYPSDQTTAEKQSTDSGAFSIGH
So I've got a bunch of compounds here, and I need their IC50 values.

Worked cases, IC50 given:
COC(=O)N1CCO[C@@H](Cc2c(-c3c(F)cc(-n4cnc(C(N)=O)c4)cc3F)nc3cc(C)ccn23)C1 [US20240034729, Compound 110]: < 0.1 µM
COC(=O)N1CCO[C@@H](Cc2c(-c3c(F)cc(-c4nn[nH]n4)cc3F)nc3cc(C)ccn23)C1 [US20240034729, Compound 104]: < 1 µM

With those in mind, consider the next compound.
What does the data say about its IC50? Entry: COC(=O)N1CCO[C@@H](Cc2c(-c3c(F)cc(-c4ncccn4)cc3F)nc3cc(C)ccn23)C1 [US20240034729, Compound 18]
< 1 µM

---

- experimental system: P2X purinoceptor 3 (Homo sapiens, UniProt P56373)
- Sequence (P56373 whole entry): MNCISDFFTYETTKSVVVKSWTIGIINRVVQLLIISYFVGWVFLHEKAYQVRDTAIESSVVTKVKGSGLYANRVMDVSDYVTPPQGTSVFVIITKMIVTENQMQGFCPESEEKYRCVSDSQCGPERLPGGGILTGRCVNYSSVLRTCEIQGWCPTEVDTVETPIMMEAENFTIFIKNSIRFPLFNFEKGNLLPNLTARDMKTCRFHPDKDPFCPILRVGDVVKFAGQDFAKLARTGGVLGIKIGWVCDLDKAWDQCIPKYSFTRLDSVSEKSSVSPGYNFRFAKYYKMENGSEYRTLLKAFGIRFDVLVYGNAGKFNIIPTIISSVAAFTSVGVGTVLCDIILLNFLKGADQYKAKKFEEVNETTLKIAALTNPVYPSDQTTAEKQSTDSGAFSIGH
pIC50: −log10 of the molar value.
readout type: pIC50

COC(=O)N1CCO[C@@H](Cc2c(-c3c(F)cc(-c4nc(C5(C(=O)O)CC5)c[nH]4)cc3F)nc3cc(C)ccn23)C1: > 8.00
COC(=O)N1CCO[C@@H](Cc2c(-c3c(F)cc(-c4ccc(O)cn4)cc3F)nc3cc(C)ccn23)C1: > 7.00
COC(=O)N1CCO[C@@H](Cc2c(-c3c(F)cc(C#N)cc3F)nc3cc(C)ccn23)C1: > 6.00

// input: 4 molecules below; output: pIC50 for each
1. COC(=O)N1CCO[C@@H](Cc2c(-c3c(F)cc(NC(=O)/C=C/C(N)=O)cc3F)nc3cc(C)ccn23)C1
2. COC(=O)N1CCO[C@@H](Cc2c(-c3c(F)cc(N4CC=CC4=O)cc3F)nc3cc(C)ccn23)C1
3. COC(=O)N1CCO[C@@H](Cc2c(-c3c(F)cc(NC(=O)C4(C(=O)OC)CC4)cc3F)nc3cc(C)ccn23)C1
4. COC(=O)N1CCO[C@@H](Cc2c(-c3c(F)cc(CC(N)=O)cc3F)nc3cc(C)ccn23)C1

["> 8.00", "> 8.00", "> 6.00", "> 6.00"]
